target: LRRK2 (G2019S) (Homo sapiens, UniProt Q5S007, G2019S); test: LRRK2 G2019S enzyme inhibition, ADP-Glo kinase assay; type: biochemical; design: purchased SignalChem L10-12GG; conditions: ATP 25 μM
Sequence (Q5S007 970-2527 G2019S limits assumed): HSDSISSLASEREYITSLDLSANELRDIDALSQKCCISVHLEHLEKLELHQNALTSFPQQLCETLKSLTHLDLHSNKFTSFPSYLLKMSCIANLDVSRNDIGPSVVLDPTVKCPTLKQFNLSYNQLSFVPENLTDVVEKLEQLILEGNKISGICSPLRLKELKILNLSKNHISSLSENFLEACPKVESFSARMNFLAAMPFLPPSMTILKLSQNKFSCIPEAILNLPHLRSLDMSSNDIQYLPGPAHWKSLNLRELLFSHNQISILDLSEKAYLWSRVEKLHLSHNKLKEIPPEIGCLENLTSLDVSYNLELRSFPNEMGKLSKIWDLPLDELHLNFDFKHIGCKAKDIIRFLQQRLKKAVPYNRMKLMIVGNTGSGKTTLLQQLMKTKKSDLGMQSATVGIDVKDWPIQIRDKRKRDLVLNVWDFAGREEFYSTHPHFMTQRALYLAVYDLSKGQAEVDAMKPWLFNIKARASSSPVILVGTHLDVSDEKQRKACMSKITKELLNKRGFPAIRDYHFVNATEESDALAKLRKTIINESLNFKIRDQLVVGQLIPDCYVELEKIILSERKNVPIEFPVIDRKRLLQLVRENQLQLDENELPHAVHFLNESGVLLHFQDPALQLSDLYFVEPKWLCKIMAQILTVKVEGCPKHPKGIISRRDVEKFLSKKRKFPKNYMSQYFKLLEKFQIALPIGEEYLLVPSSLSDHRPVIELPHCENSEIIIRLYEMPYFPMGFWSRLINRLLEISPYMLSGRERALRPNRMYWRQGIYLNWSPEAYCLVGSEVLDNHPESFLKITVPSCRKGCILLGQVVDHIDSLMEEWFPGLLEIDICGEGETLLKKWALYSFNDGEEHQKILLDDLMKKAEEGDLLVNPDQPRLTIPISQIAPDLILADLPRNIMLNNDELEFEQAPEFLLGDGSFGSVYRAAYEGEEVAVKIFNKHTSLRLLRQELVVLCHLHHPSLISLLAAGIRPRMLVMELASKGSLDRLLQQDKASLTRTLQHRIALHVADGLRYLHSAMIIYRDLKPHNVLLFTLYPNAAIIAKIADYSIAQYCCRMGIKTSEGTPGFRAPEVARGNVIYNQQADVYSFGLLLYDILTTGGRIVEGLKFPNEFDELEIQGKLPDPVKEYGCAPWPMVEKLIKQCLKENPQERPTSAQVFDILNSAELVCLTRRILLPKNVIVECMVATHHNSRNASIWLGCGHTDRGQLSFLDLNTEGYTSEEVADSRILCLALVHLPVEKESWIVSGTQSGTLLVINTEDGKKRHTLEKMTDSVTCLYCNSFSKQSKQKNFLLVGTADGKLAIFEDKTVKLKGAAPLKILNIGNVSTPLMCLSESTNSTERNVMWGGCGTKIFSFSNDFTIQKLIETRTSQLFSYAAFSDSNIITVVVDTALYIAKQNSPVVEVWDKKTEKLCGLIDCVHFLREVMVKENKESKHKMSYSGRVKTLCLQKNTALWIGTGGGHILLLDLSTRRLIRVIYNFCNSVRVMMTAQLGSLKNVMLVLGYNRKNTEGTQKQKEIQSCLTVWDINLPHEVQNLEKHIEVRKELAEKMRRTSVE
pIC50: −log10 of the molar value.
Parameter pIC50: see the listing below.

Take a look at these entries with their results.
Give a short answer stating reported pIC50 for CC[C@@H](C)Nc1nc(Nc2ccc(S(=O)(=O)N3CCOCC3)cc2OC)nc2[nH]ccc12 . > 7.00

Supply recorded pIC50 for COc1cc(S(C)(=O)=O)ccc1Nc1nc(NC2CCC2)c2c(C#N)c[nH]c2n1 here. > 7.00

Read the entry N#Cc1c[nH]c2nc(Nc3ccc(C(=O)N4CCOCC4)c4c3OCCO4)nc(NCC3CC3)c12 and write its reported pIC50. > 7.00

Write down pIC50 measured for item O=C(c1ccc(Nc2nc(NCC3CCCC3)c3c(C(F)(F)F)c[nH]c3n2)c2c1CCO2)N1CCOCC1 6.00 to 6.52

Read off the recorded pIC50 for COc1cc(S(C)(=O)=O)ccc1Nc1nc(NC2CCC2)c2c(C(F)(F)F)c[nH]c2n1 6.52 to 7.00

Next molecule, pIC50 to be filled in.
Using known records, supply pIC50 for CCNc1nc(Nc2ccc(S(=O)(=O)N3CCOCC3)cc2OC)nc2[nH]ccc12 [Example 5, 2,2,2-trifluoroacetate] > 7.00

====

biological target: LRRK2 (G2019S) (Homo sapiens, UniProt Q5S007, G2019S); assay: LRRK2 G2019S enzyme inhibition, ADP-Glo kinase assay; assay type: biochemical; design: purchased SignalChem L10-12GG; details: ATP 25 μM
measurement-kind: IC50

Example molecules with recorded IC50:
Provide measured IC50 value, entry: COc1cc(S(C)(=O)=O)ccc1Nc1nc(NC(C)C)c2c(C(F)(F)F)c[nH]c2n1 101 to 300 nM

Query IC50 for COc1cc(S(=O)(=O)N2CCOCC2)ccc1Nc1nc(NCC2CC2)c2c(C#N)c[nH]c2n1 < 100 nM

Please give the documented IC50 of CCCNc1nc(Nc2ccc(S(=O)(=O)N3CCOCC3)cc2OC)nc2[nH]cc(C(F)(F)F)c12 < 100 nM

Continuing:
Identify the reported IC50 for the following entry. O=C(c1ccc(Nc2nc(NCC3CC3)c3c(C(F)(F)F)c[nH]c3n2)c2c1OCCO2)N1CCN(C2COC2)CC1 < 100 nM

====

system: TNF-α; test: Inhibition of LPS-induced TNF-α secretion of THP-1 monocytes (ELISA); assay type: cell-based, human; conditions: Homo sapiens, THP-1; compound 0.5 μM, LPS 500 ng/mL, 24 hours; read-out: THP-1/TNF-α (% inhib)
Rule: inhibition at 0.5 µM under 10% gives false (0), otherwise true (1).

Take a look at these entries with their results.
Textbook exercise: given the entry O=C(c1ccc(Nc2nc(NC3CCCC3)c3c(C(F)(F)F)c[nH]c3n2)c2c1OCCO2)N1CCN(C2COC2)CC1 , state whether its inhibition at 0.5 µM is greater than or equal to 10%. true (1)

Could you please find out whether COCCNc1nc(Nc2ccc(C(=O)N3CCC(N4CCOCC4)CC3)c3c2OCC3)nc2[nH]cc(C#N)c12 has inhibition at 0.5 µM that meets 10% or exceeds it? true (1)

Please check the record CCNc1nc(Nc2ccc(S(=O)(=O)N3CCC(N4CCOCC4)CC3)c3c2OCCO3)nc2[nH]cc(C(F)(F)F)c12 and state if its inhibition at 0.5 µM is at or above 10%. false (0)

Would you say CC(C)CNc1nc(Nc2ccc(C(=O)N3CCC(N4CCOCC4)CC3)c3c2OCC3)nc2[nH]cc(C(F)(F)F)c12 shows inhibition at 0.5 µM at minimum 10%? true (1)

Is it the case that CCNc1nc(Nc2ccc(C(=O)N3CC[C@H](N4CCOCC4)C3)c3c2OCC3)nc2[nH]cc(C(F)(F)F)c12 has inhibition at 0.5 µM reaching or exceeding 10%? false (0)

Further cases:
Hi, just wondering whether CCNc1nc(Nc2ccc(C(=O)N3CC[C@@H](N4CCOCC4)C3)c3c2OCC3)nc2[nH]cc(C(F)(F)F)c12 shows inhibition at 0.5 µM of 10% or higher. true (1)

Reported inhibition at 0.5 µM at or above 10%? CNc1nc(Nc2ccc(C(=O)N3CC[C@H](N4CCOCC4)C3)c3c2OCC3)nc2[nH]cc(C(F)(F)F)c12 true (1)

Confirm if inhibition at 0.5 µM reported for the compound CCCNc1nc(Nc2ccc(C(=O)N3CCC(N4CCOCC4)CC3)c3c2OCC3)nc2[nH]cc(C#N)c12 is 10% or above. true (1)

Decide: inhibition at 0.5 µM of CNc1nc(Nc2ccc(C(=O)N3CCC(N4C[C@@H]5C[C@H]4CO5)CC3)c3c2OCC3)nc2[nH]cc(C(F)(F)F)c12 >= 10%? false (0)

Threshold query (inhibition at 0.5 µM >= 10%) on CCNc1nc(Nc2ccc(C(=O)N3CCC(N4CCOCC4)CC3)c3c2OCO3)nc2[nH]cc(C(F)(F)F)c12 true (1)

// inclusive: inhibition at 0.5 µM at least 10%? input: CNc1nc(Nc2ccc(S(=O)(=O)N3CCC(N4CCOCC4)CC3)cc2OC)nc2[nH]cc(C(F)(F)F)c12 [Example 157, 2,2,2-trifluoroacetate] false (0)

# check: inhibition at 0.5 µM of CCNc1nc(Nc2ccc(C(=O)N3CCC(N4CCOCC4)CC3)c3c2OCC3)nc2[nH]cc(C(F)(F)F)c12 is greater than or equal to 10% true (1)

The reported numbers originate from patent US20230066011A1.
